Form field: inhibition (one value per entry).
Test: HepG2 cytotoxicity, primary screen, cytotoxicity control for P. falciparum antimalarial project, cell-based, ATP luminescence (AID 2303);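 further: 0% = DMSO wells and 100% = digitonin-killed cells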
Conditions: HepG2 viability, 24-48 h, at 10 µM, hits give high values
Quick reminder: number only, in %, skip the unit.

Known inhibition results, listed for orientation:
>  <compound>
Cc1ccc(CC(C)NCC(O)c2cccc(C(F)(F)F)c2)c(C)c1 (stereo not given)

>  <inhibition (%)>
3

$$$$
>  <compound>
Oc1ccccc1CNCC(O)c1cc(C(F)(F)F)cc(C(F)(F)F)c1 (stereo not given)

>  <inhibition (%)>
15

$$$$
>  <compound>
NCC(=O)c1cc2c(cc1N)OCCO2

>  <inhibition (%)>
64

$$$$
>  <compound>
COc1cccc(C(=O)C2CC2CN2CC=C(c3c(C)[nH]c4ccccc34)CC2)c1 (stereo not given)

>  <inhibition (%)>
13

$$$$

Turning now to a further record.
For `O=C(/C=C/c1ccc(Cl)c(Cl)c1)N1CCC(CN2CC[C@H](c3c[nH]c4ccccc34)[C@@H](O)C2)CC1` the compound record lists inhibition as 37
